measuredOn: Fibroblast growth factor receptor 2 (Homo sapiens) (UniProt P21802)
Sequence (P21802 22-821 limits assumed): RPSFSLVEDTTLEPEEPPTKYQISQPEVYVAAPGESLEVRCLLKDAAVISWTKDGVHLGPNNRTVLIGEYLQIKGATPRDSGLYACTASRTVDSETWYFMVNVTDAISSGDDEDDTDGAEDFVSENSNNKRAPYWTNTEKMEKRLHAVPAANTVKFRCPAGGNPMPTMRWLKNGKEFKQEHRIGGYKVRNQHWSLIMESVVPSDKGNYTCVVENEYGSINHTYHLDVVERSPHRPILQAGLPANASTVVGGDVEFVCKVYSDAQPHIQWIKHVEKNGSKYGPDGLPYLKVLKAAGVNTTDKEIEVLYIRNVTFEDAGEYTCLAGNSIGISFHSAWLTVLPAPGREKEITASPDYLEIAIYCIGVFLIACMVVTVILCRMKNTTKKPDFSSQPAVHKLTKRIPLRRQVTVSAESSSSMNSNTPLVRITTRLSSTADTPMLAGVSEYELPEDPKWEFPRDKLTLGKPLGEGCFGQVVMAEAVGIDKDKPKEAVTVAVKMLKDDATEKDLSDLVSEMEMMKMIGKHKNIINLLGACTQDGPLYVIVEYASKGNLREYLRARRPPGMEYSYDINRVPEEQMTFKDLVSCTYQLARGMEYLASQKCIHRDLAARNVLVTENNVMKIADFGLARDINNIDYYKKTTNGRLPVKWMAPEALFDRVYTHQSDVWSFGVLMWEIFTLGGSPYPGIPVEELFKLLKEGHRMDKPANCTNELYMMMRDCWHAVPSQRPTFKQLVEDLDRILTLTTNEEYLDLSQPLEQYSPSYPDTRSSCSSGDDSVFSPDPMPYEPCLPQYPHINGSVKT
cond: Compound concentration 20.0 uM
Description: Thermal Shift Assay. Domain: start/stop: T457-E768
Residues, ends and D or L forms follow the SMILES beside them.
Criterion met if ΔTm is below -0.06 °C. Criterion not met if not; exact matches included in Criterion not met.

[
  {
    "compound": "COc1ccc(N2CCN(C(=O)c3cc4c(s3)-c3ccccc3S(=O)(=O)C4)CC2)cc1",
    "discreteLabel": "Criterion not met"
  },
  {
    "compound": "NC(=O)c1cc(F)cc2c1C(=O)N(C1CCN(C3CCC(F)(F)CC3)CC1)C2",
    "discreteLabel": "Criterion not met"
  },
  {
    "compound": "CCCCCCCCCCCCCC(=S)NCCCC[C@H](NC(=O)OCc1ccccc1)C(=O)Nc1ccccc1",
    "discreteLabel": "Criterion not met"
  },
  {
    "compound": "CC[C@H](C)[C@H](NC(C)=O)C(=O)N[C@@H](CCC(=O)O)C(=O)N[C@H](C(=O)N[C@H](C=O)CC(=O)O)[C@@H](C)O (Ac-IETD-aldehyde)",
    "discreteLabel": "Criterion not met"
  },
  {
    "compound": "O=c1[nH]c(CS[C@H]2CC[C@H](O)CC2)nc2cc(OCC3CC3)cc(F)c12",
    "discreteLabel": "Criterion met"
  },
  {
    "compound": "N#Cc1ccc(-c2c3n(c4cccnc24)CCN(C2CC2)C3=O)cc1F",
    "discreteLabel": "Criterion met"
  },
  {
    "compound": "OC[C@H]1O[C@@H](c2ccc(Cl)c(Cc3ccc(O[C@H]4CCOC4)cc3)c2)[C@H](O)[C@@H](O)[C@@H]1O",
    "discreteLabel": "Criterion met"
  },
  {
    "compound": "Cc1cc(C)cc(Oc2ccc(CNC(=O)[C@H](C)N)cc2C)c1",
    "discreteLabel": "Criterion not met"
  },
  {
    "compound": "CC(C)(C)NS(=O)(=O)c1ccc(NC(=O)[C@H](Cc2ccccc2)NC(=O)c2ccc(F)cc2)cc1",
    "discreteLabel": "Criterion not met"
  },
  {
    "compound": "CCc1oc2ccccc2c1C(=O)c1cc(Br)c(O)c(Br)c1",
    "discreteLabel": "Criterion met"
  },
  {
    "compound": "COc1cc(Nc2ncc(F)c(Nc3ccc4c(n3)N(COP(=O)(O)O)C(=O)C(C)(C)O4)n2)cc(OC)c1OC",
    "discreteLabel": "Criterion not met"
  },
  {
    "compound": "CC(C)c1cc(C(=O)N2Cc3ccc(CN4CCN(C)CC4)cc3C2)c(O)cc1O",
    "discreteLabel": "Criterion not met"
  },
  {
    "compound": "CCCNC(=O)[C@H]1O[C@@H]1C(=O)N[C@H](C(=O)N1CCC[C@H]1C(=O)O)[C@@H](C)CC",
    "discreteLabel": "Criterion not met"
  },
  {
    "compound": "COc1ccc(OC)c(-c2nnc3n2N=C(c2ccc(OC)c(OC)c2)CS3)c1",
    "discreteLabel": "Criterion not met"
  },
  {
    "compound": "CN(Cc1ccccc1)c1ccc2cc(C(=O)O)c(=O)oc2c1",
    "discreteLabel": "Criterion not met"
  },
  {
    "compound": "CNCCN(C)Cc1cn[nH]c1-c1ccc(OC2CC(OCCC3CCOCC3)C2)cc1 (configuration not stated)",
    "discreteLabel": "Criterion not met"
  },
  {
    "compound": "CS(=O)(=O)c1ccc(Oc2cc(F)cc(C#N)c2)c2c1C(O)C(F)C2 (configuration not stated)",
    "discreteLabel": "Criterion met"
  },
  {
    "compound": "O=S(=O)(CSc1nnc(Br)n1Cc1ccc(Br)c2ccccc12)Nc1cccnc1",
    "discreteLabel": "Criterion met"
  },
  {
    "compound": "C=CCn1c(N[C@@H]2C[C@H](c3ccc(OCc4ccccc4)cc3)CN(C)C2)nc2cc[nH]c2c1=O",
    "discreteLabel": "Criterion not met"
  },
  {
    "compound": "CCN(c1cc(C#CCN2CCOCC2)cc(C(=O)NCc2c(C)cc(C)[nH]c2=O)c1C)[C@H]1CC[C@H](N(C)CCOC)CC1",
    "discreteLabel": "Criterion not met"
  },
  {
    "compound": "COc1cc(O)cc(CN2CCc3c(cc(Cn4ccn(C)c4=N)cc3-c3ccc(F)cc3C)C2=O)c1",
    "discreteLabel": "Criterion met"
  },
  {
    "compound": "Oc1nc(-c2ccc(C(F)(F)F)cc2)nc2c1CSCC2",
    "discreteLabel": "Criterion met"
  },
  {
    "compound": "Nc1ccc(-c2cccs2)cc1NC(=O)c1ccc2nc(N3CCNCC3)ccc2c1",
    "discreteLabel": "Criterion not met"
  },
  {
    "compound": "CCOC(=O)Oc1c(OC)cc(C(=O)O[C@H]2C[C@H]3CN4CCc5c([nH]c6cc(OC)ccc56)[C@@H]4C[C@H]3[C@@H](C(=O)OC)[C@@H]2OC)cc1OC",
    "discreteLabel": "Criterion met"
  },
  {
    "compound": "Cc1ccnc(NS(=O)(=O)c2ccc(NC(=O)Nc3ccc(S(=O)(=O)Nc4nccc(C)n4)cc3)cc2)n1",
    "discreteLabel": "Criterion met"
  },
  {
    "compound": "CC(C)NCC(O)COC(Cn1c2ccccc2c2ccccc21)Cn1c2ccccc2c2ccccc21 (configuration not stated)",
    "discreteLabel": "Criterion not met"
  },
  {
    "compound": "O=C(c1cc(Cc2n[nH]c(=O)c3ccccc23)ccc1F)N1CCn2nc(C(F)(F)F)nc2C1",
    "discreteLabel": "Criterion met"
  },
  {
    "compound": "COc1cc(C(=O)N2C[C@H](N)CC[C@@H]2C)cc2nc(-c3cc4cccnc4n3CC3CC3)n(C)c12",
    "discreteLabel": "Criterion not met"
  },
  {
    "compound": "C[C@H]1CO[C@@H]2Cn3cc(C(=O)NCc4ccc(F)cc4F)c(=O)c(O)c3C(=O)N12",
    "discreteLabel": "Criterion not met"
  },
  {
    "compound": "Nc1cc(F)ccc1NC(=O)c1ccc(CNC(=O)/C=C/c2cccnc2)cc1",
    "discreteLabel": "Criterion not met"
  },
  {
    "compound": "CCN1C(C)(C)CC(Oc2ccc(C(=O)Nc3ccc(NC(=O)Nc4cc(C(C)(C)C)on4)cc3)nc2)CC1(C)C",
    "discreteLabel": "Criterion met"
  },
  {
    "compound": "Cc1nc(-c2cnc(NC(C)C)n(C)c2=O)ccc1Oc1ccnc(-c2cnn(C)c2)c1",
    "discreteLabel": "Criterion not met"
  },
  {
    "compound": "CN1CC[C@@H](Oc2ccc(F)c(-c3nc4c(o3)C(=O)c3ccccc3C4=O)c2Cl)C1",
    "discreteLabel": "Criterion met"
  },
  {
    "compound": "Nc1nc(NC2CC2)cc(-c2cccc(Cl)c2Cl)n1",
    "discreteLabel": "Criterion not met"
  },
  {
    "compound": "Cn1cc(-c2ccncc2)c(-c2ccc(OCc3ccc4ccccc4n3)cc2)n1",
    "discreteLabel": "Criterion not met"
  }
]
